- measurementConditions: in acetonitrile, 303.15 K

- structureAsSmiles: "CCS(=O)(=O)O.COC(=O)c1ccc2c(C(=Nc3ccc(N(C)C(=O)CN4CCN(C)CC4)cc3)c3ccccc3)c(O)[nH]c2c1"
  solubility (mole fraction): "3.83e-05"

---

- measurementConditions: in DMAc, 323.15 K
quantity: solubility (mole fraction)

- structureAsSmiles: "CCS(=O)(=O)O.COC(=O)c1ccc2c(C(=Nc3ccc(N(C)C(=O)CN4CCN(C)CC4)cc3)c3ccccc3)c(O)[nH]c2c1"
  quantity: "solubility (mole fraction)"
  quantitativeResult: 0.00316

---

- measurementConditions: in methanol, 278.15 K

- structureAsSmiles: "CCS(=O)(=O)O.COC(=O)c1ccc2c(C(=Nc3ccc(N(C)C(=O)CN4CCN(C)CC4)cc3)c3ccccc3)c(O)[nH]c2c1"
  solubility (mole fraction): 0.00126

---

- measurementConditions: in isopropanol, 318.15 K
quantity: solubility (mole fraction)

- structureAsSmiles: "CCS(=O)(=O)O.COC(=O)c1ccc2c(C(=Nc3ccc(N(C)C(=O)CN4CCN(C)CC4)cc3)c3ccccc3)c(O)[nH]c2c1"
  quantitativeResult: 0.000118

---

- measurementConditions: in ethanol, 288.15 K

- structureAsSmiles: "CCS(=O)(=O)O.COC(=O)c1ccc2c(C(=Nc3ccc(N(C)C(=O)CN4CCN(C)CC4)cc3)c3ccccc3)c(O)[nH]c2c1"
  solubility (mole fraction): 0.000214

---

- measurementConditions: in dichloromethane, 278.15 K

- structureAsSmiles: "CCS(=O)(=O)O.COC(=O)c1ccc2c(C(=Nc3ccc(N(C)C(=O)CN4CCN(C)CC4)cc3)c3ccccc3)c(O)[nH]c2c1"
  solubility (mole fraction): 0.000125

---

- measurementConditions: in n-butanol, 283.15 K

- structureAsSmiles: "CCS(=O)(=O)O.COC(=O)c1ccc2c(C(=Nc3ccc(N(C)C(=O)CN4CCN(C)CC4)cc3)c3ccccc3)c(O)[nH]c2c1"
  solubility (mole fraction): "1.44e-05"

---

- measurementConditions: in DMAc, 298.15 K

- structureAsSmiles: "CCS(=O)(=O)O.COC(=O)c1ccc2c(C(=Nc3ccc(N(C)C(=O)CN4CCN(C)CC4)cc3)c3ccccc3)c(O)[nH]c2c1"
  solubility (mole fraction): 0.00156

---

- measurementConditions: in n-propanol, 283.15 K
quantity: solubility (mole fraction)

- structureAsSmiles: "CCS(=O)(=O)O.COC(=O)c1ccc2c(C(=Nc3ccc(N(C)C(=O)CN4CCN(C)CC4)cc3)c3ccccc3)c(O)[nH]c2c1"
  quantity: "solubility (mole fraction)"
  quantitativeResult: "6.92e-05"

---

- measurementConditions: in acetonitrile, 288.15 K
quantity: solubility (mole fraction)

- structureAsSmiles: "CCS(=O)(=O)O.COC(=O)c1ccc2c(C(=Nc3ccc(N(C)C(=O)CN4CCN(C)CC4)cc3)c3ccccc3)c(O)[nH]c2c1"
  quantitativeResult: "1.75e-05"

---

- measurementConditions: in ethanol, 298.15 K

- structureAsSmiles: "CCS(=O)(=O)O.COC(=O)c1ccc2c(C(=Nc3ccc(N(C)C(=O)CN4CCN(C)CC4)cc3)c3ccccc3)c(O)[nH]c2c1"
  solubility (mole fraction): 0.000298

---

- measurementConditions: in n-butanol, 313.15 K
quantity: solubility (mole fraction)

- structureAsSmiles: "CCS(=O)(=O)O.COC(=O)c1ccc2c(C(=Nc3ccc(N(C)C(=O)CN4CCN(C)CC4)cc3)c3ccccc3)c(O)[nH]c2c1"
  quantity: "solubility (mole fraction)"
  quantitativeResult: "5.17e-05"

---

- measurementConditions: in acetone, 278.15 K

- structureAsSmiles: "CCS(=O)(=O)O.COC(=O)c1ccc2c(C(=Nc3ccc(N(C)C(=O)CN4CCN(C)CC4)cc3)c3ccccc3)c(O)[nH]c2c1"
  solubility (mole fraction): "3.21e-06"

---

- measurementConditions: in DMAc, 303.15 K
quantity: solubility (mole fraction)

- structureAsSmiles: "CCS(=O)(=O)O.COC(=O)c1ccc2c(C(=Nc3ccc(N(C)C(=O)CN4CCN(C)CC4)cc3)c3ccccc3)c(O)[nH]c2c1"
  quantity: "solubility (mole fraction)"
  quantitativeResult: 0.00186

---

- measurementConditions: in n-propanol, 288.15 K
quantity: solubility (mole fraction)

- structureAsSmiles: "CCS(=O)(=O)O.COC(=O)c1ccc2c(C(=Nc3ccc(N(C)C(=O)CN4CCN(C)CC4)cc3)c3ccccc3)c(O)[nH]c2c1"
  result: "8.1e-05"

---

- measurementConditions: in DMF, 278.15 K
quantity: solubility (mole fraction)

- structureAsSmiles: "CCS(=O)(=O)O.COC(=O)c1ccc2c(C(=Nc3ccc(N(C)C(=O)CN4CCN(C)CC4)cc3)c3ccccc3)c(O)[nH]c2c1"
  quantity: "solubility (mole fraction)"
  quantitativeResult: 0.000994

---

- measurementConditions: in acetone, 303.15 K
quantity: solubility (mole fraction)

- structureAsSmiles: "CCS(=O)(=O)O.COC(=O)c1ccc2c(C(=Nc3ccc(N(C)C(=O)CN4CCN(C)CC4)cc3)c3ccccc3)c(O)[nH]c2c1"
  quantitativeResult: "8.32e-06"

---

- measurementConditions: in acetonitrile, 283.15 K
quantity: solubility (mole fraction)

- structureAsSmiles: "CCS(=O)(=O)O.COC(=O)c1ccc2c(C(=Nc3ccc(N(C)C(=O)CN4CCN(C)CC4)cc3)c3ccccc3)c(O)[nH]c2c1"
  quantity: "solubility (mole fraction)"
  quantitativeResult: "1.42e-05"

---

- measurementConditions: in n-propanol, 278.15 K
quantity: solubility (mole fraction)

- structureAsSmiles: "CCS(=O)(=O)O.COC(=O)c1ccc2c(C(=Nc3ccc(N(C)C(=O)CN4CCN(C)CC4)cc3)c3ccccc3)c(O)[nH]c2c1"
  quantity: "solubility (mole fraction)"
  quantitativeResult: "4.29e-05"

---

- measurementConditions: in n-propanol, 323.15 K
quantity: solubility (mole fraction)

- structureAsSmiles: "CCS(=O)(=O)O.COC(=O)c1ccc2c(C(=Nc3ccc(N(C)C(=O)CN4CCN(C)CC4)cc3)c3ccccc3)c(O)[nH]c2c1"
  quantity: "solubility (mole fraction)"
  quantitativeResult: 0.000384

---

- measurementConditions: in isopropanol, 278.15 K
quantity: solubility (mole fraction)

- structureAsSmiles: "CCS(=O)(=O)O.COC(=O)c1ccc2c(C(=Nc3ccc(N(C)C(=O)CN4CCN(C)CC4)cc3)c3ccccc3)c(O)[nH]c2c1"
  result: "1.43e-05"

---

- measurementConditions: in ethanol, 323.15 K

- structureAsSmiles: "CCS(=O)(=O)O.COC(=O)c1ccc2c(C(=Nc3ccc(N(C)C(=O)CN4CCN(C)CC4)cc3)c3ccccc3)c(O)[nH]c2c1"
  solubility (mole fraction): 0.000627

---

- measurementConditions: in methanol, 323.15 K
quantity: solubility (mole fraction)

- structureAsSmiles: "CCS(=O)(=O)O.COC(=O)c1ccc2c(C(=Nc3ccc(N(C)C(=O)CN4CCN(C)CC4)cc3)c3ccccc3)c(O)[nH]c2c1"
  result: 0.00524

---

- measurementConditions: in acetone, 313.15 K
quantity: solubility (mole fraction)

- structureAsSmiles: "CCS(=O)(=O)O.COC(=O)c1ccc2c(C(=Nc3ccc(N(C)C(=O)CN4CCN(C)CC4)cc3)c3ccccc3)c(O)[nH]c2c1"
  quantitativeResult: "1.08e-05"

---

- measurementConditions: in dichloromethane, 288.15 K

- structureAsSmiles: "CCS(=O)(=O)O.COC(=O)c1ccc2c(C(=Nc3ccc(N(C)C(=O)CN4CCN(C)CC4)cc3)c3ccccc3)c(O)[nH]c2c1"
  solubility (mole fraction): 0.000161
